// values below are reported IC50
- System: MV-4-11
- Test Description: Oncology cell growth assay MV-4-11 (CellTiter Glo, 72 hours)
- Assay type: cell-based
- Experimental Conditions: Homo sapiens, MV4-11, 72 h; MV-4-11 cell growth inhibitory activity, 3d

> print(dat)
                                   compound  experimental.target      result
1   Cc1noc(C)c1-c1cnc2[nH]cc(Sc3ccccc3)c2c1              MV-4-11  1 to 10 µM
2  C=CCn1cc(-c2cn(Cc3ccccc3)c3cc(-c4c(C)noc4C)cnc23)cn1              MV-4-11      ≤ 1 µM

Exercise: Report IC50, nothing else, for this compound: Cc1noc(C)c1-c1cnc2[nH]cc(C3=CCC(F)(F)CC3)c2c1
Key: 1 to 10 µM

Exercise: Report IC50, nothing else, for this compound: C=CCn1cc(-c2cn(S(=O)(=O)CCC(F)(F)F)c3cc(-c4c(C)noc4C)cnc23)cn1
Key: ≤ 1 µM

Exercise: Report IC50, nothing else, for this compound: COc1ncc(F)cc1C(O)c1c[nH]c2ncc(-c3c(C)noc3C)cc12 (stereo not drawn)
Key: ≤ 1 µM

----------
// values below are reported IC50
- Tested on: bromodomain
- Test Description: Bromodomain cell assays of Example 40 (at least one of them)
- Assay type: cell-based
- Experimental Conditions: in at least one of the bromodomain cell assays described in Example 40

Exercise: Please report the measured IC50 for Cc1noc(C)c1-c1cnc2c(C#N)cn(S(=O)(=O)c3ccccc3)c2c1 tested on bromodomain.
Key: < 10 µM

Exercise: Please report the measured IC50 for Cc1nn(C(F)F)cc1S(=O)(=O)n1ccc2ncc(-c3c(C)noc3C)cc21 tested on bromodomain.
Key: < 10 µM

Exercise: Please report the measured IC50 for Cc1noc(C)c1-c1cnc2c(c1)c(C(O)C1CCC(F)(F)CC1)cn2C (stereo not shown) tested on bromodomain.
Key: < 10 µM

Exercise: Please report the measured IC50 for [2H]C([2H])([2H])n1cc(CC2CCN(C(=O)OCc3ccccc3)CC2)c2cc(-c3c(C)noc3C)cnc21 tested on bromodomain.
Key: < 10 µM

----------
// values below are reported IC50
- System: bromodomain
- Test Description: Bromodomain cell assays of Example 40 (at least one of them)
- Format: cell-based
- Experimental Conditions: in at least one of the bromodomain cell assays described in Example 40

Examples from the recorded data:
> print(dat)
                                   compound   result
1  Cc1noc(C)c1-c1cnc2c(I)cn(CC3(F)CCCCC3)c2c1 [P-0234]  < 10 µM
2  [2H]C([2H])(O)C(c1ccccc1)n1cc(-c2cnn(C)c2)c2ncc(-c3c(C)noc3C)cc21 (stereo not drawn) [P-0218]  < 10 µM
3  Cc1noc(C)c1-c1cnc2[nH]cc(Cc3cccnc3)c2c1 [P-0003]  < 10 µM
4  Cc1noc(C)c1-c1cnc2ccn(S(=O)(=O)c3ccccc3)c2c1 [P-0038]  < 10 µM
5  Cc1noc(C)c1-c1cnc2c(-c3cnn(C)c3)cn(C(C(=O)NC3CC3)c3ccccc3)c2c1 (stereo not drawn) [P-0207]  < 10 µM
6  Cc1noc(C)c1-c1cnc2c(-c3cnn(C)c3)cn(Cc3cc(F)ccc3Cl)c2c1 [P-0190]  < 10 µM
7  Cc1noc(C)c1-c1cnc2c(-c3cnn(C(F)F)c3)cn(Cc3ccccc3F)c2c1 [P-0176]  < 10 µM
8  CCOC(=O)C(c1ccccc1)n1cc(-c2cnn(C)c2)c2ncc(-c3c(C)noc3C)cc21 (stereo not drawn) [P-0186]  < 10 µM

Exercise: Report IC50, nothing else, for this compound: Cc1noc(C)c1-c1cnc2c(-c3cnn(C(F)F)c3)cn(S(=O)(=O)c3ccccc3F)c2c1 [P-0132]
Key: < 10 µM
